- Protocol text: refractive index (Na D-line) (dimensionless); an = ratio of the nth substance listed
- Experimental parameters: 328.15 K; 101 kPa; Liquid; Standard Abbe refractometry; a2 = 3
± gives the expanded uncertainty stated by the source.
Measured endpoint: refractive index

Look over these answered cases.
INSERT INTO assay_data (compound, value_reported) VALUES
  ('CCC[N+](CCC)(CCC)Cc1ccccc1.[Cl-] [benzyltripropylammonium chloride] + OCCO', '1.4879 ± 0.0008'),
  ('CCC[N+](CCC)(CCC)Cc1ccccc1.[Cl-] [benzyltripropylammonium chloride] + CC(O)C(=O)O', '1.4824 ± 0.0015'),
  ('CCC[N+](CCC)(CCC)Cc1ccccc1.[Cl-] [benzyltripropylammonium chloride] + OCC(O)CO', '1.4953 ± 0.0008');

Enquiry: Report refractive index, nothing else, for this compound: CCC[N+](CCC)(CCC)Cc1ccccc1.[Cl-] [benzyltripropylammonium chloride] + Oc1ccccc1
Return: 1.5369 ± 0.0008

----------
- Protocol text: refractive index (Na D-line) (dimensionless); an = ratio of the nth substance listed
- Experimental parameters: 293.15 K; 101 kPa; Liquid; Standard Abbe refractometry; a2 = 3
± gives the expanded uncertainty stated by the source.
refractive index values for the compounds below.

Look over these answered cases.
INSERT INTO measurements (compound, value_reported) VALUES
  ('CCC[N+](CCC)(CCC)Cc1ccccc1.[Cl-] [benzyltripropylammonium chloride] + OCC(O)CO', '1.5051 ± 0.0008'),
  ('CCC[N+](CCC)(CCC)Cc1ccccc1.[Cl-] [benzyltripropylammonium chloride] + Oc1ccccc1', '1.5486 ± 0.0008'),
  ('CCC[N+](CCC)(CCC)Cc1ccccc1.[Cl-] [benzyltripropylammonium chloride] + CC(O)C(=O)O', '1.4944 ± 0.0015');

// next entry
Enquiry: Report refractive index, nothing else, for this compound: CCC[N+](CCC)(CCC)Cc1ccccc1.[Cl-] [benzyltripropylammonium chloride] + OCCO
Return: 1.4981 ± 0.0008

----------
speed of sound values for the compounds below.
- Protocol text: an = ratio of the nth substance listed
- Experimental parameters: 313.15 K; 101 kPa; Liquid; Sing-around technique in a fixed-path interferometer; a2 = 3
All answers are understood in m/s, so give the number only.

Look over these answered cases.
INSERT INTO assay_data (compound, value_reported) VALUES
  ('CCC[N+](CCC)(CCC)Cc1ccccc1.[Cl-] [benzyltripropylammonium chloride] + OCC(O)CO', 1806.5),
  ('CCC[N+](CCC)(CCC)Cc1ccccc1.[Cl-] [benzyltripropylammonium chloride] + CC(O)C(=O)O', 1592.5),
  ('CCC[N+](CCC)(CCC)Cc1ccccc1.[Cl-] [benzyltripropylammonium chloride] + Oc1ccccc1', 1628);

// next entry
Enquiry: Report speed of sound, nothing else, for this compound: CCC[N+](CCC)(CCC)Cc1ccccc1.[Cl-] [benzyltripropylammonium chloride] + OCCO
Return: 1701.1

----------
- Protocol text: an = ratio of the nth substance listed
- Experimental parameters: 298.15 K; 101 kPa; Liquid; Vibrating tube method; a2 = 3
mass density values for the compounds below.
All answers are understood in kg/m3, so give the number only.

INSERT INTO assay_data (compound, value_reported) VALUES
  ('CCC[N+](CCC)(CCC)Cc1ccccc1.[Cl-] [benzyltripropylammonium chloride] + OCCO', 1060.58),
  ('CCC[N+](CCC)(CCC)Cc1ccccc1.[Cl-] [benzyltripropylammonium chloride] + CC(O)C(=O)O', 1117.05),
  ('CCC[N+](CCC)(CCC)Cc1ccccc1.[Cl-] [benzyltripropylammonium chloride] + OCC(O)CO', 1129.97);

// next entry
Enquiry: Report mass density, nothing else, for this compound: CCC[N+](CCC)(CCC)Cc1ccccc1.[Cl-] [benzyltripropylammonium chloride] + Oc1ccccc1
Return: 1056.98
